Cited source for all entries: the supplement of paper PMC7125110

B1: glmS ribozyme (parent)
chain: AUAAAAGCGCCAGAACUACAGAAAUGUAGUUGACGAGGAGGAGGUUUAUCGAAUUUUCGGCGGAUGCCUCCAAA

- Variants of: B1
- EXPERIMENTAL_PROTOCOL: self-cleavage kobs at 10000 uM GlcN6P; higher = faster cleavage; RNA array
- TEST_PARAMETERS: with glucosamine-6-phosphate
Variants at the floor of the assay were thinned out.
MEASURED_ENDPOINT: self-cleavage kobs at 10000 uM GlcN6P

> print(dat)
      mutation.id  reported.value
1  G35C A42U C71U     < 1e-05 s⁻¹
2  C34U G41A C68A     < 1e-05 s⁻¹
3       G37C G62C     < 1e-05 s⁻¹

Entry G7U G29U G32A A42U U55C G62C has what self-cleavage kobs at 10000 uM GlcN6P?
< 1e-05 s⁻¹

Entry G13U A36C has what self-cleavage kobs at 10000 uM GlcN6P?
< 1e-05 s⁻¹

Entry G9U A12G C16A has what self-cleavage kobs at 10000 uM GlcN6P?
< 1e-05 s⁻¹

Entry A6U A52C has what self-cleavage kobs at 10000 uM GlcN6P?
< 1e-05 s⁻¹

Entry A12U G41A G44C U55G has what self-cleavage kobs at 10000 uM GlcN6P?
< 1e-05 s⁻¹
